Source: the Immune Epitope Database (IEDB)

target: HLA-B*40:01; assay: IEDB peptide-MHC binding, purified MHC/direct/fluorescence; filed as Kd, often an IC50 or EC50 that approximates it; bounds were set here for any values at or beyond the usual limits of such assays; details: source organism: Yersinia pestis
pKd: −log10 of the molar value.
recorded_metric: pKd

primary_sequence=TMPELAWAV value="≤ 4.70"

====

biological target: HLA-B*35:01; assay: IEDB peptide-MHC binding, purified MHC/competitive/radioactivity; filed as Kd, often an IC50 or EC50 that approximates it; bounds were set here for any values at or beyond the usual limits of such assays; settings: source organism: Dengue virus 1 Brazil/97-11/1997
pKd: −log10 of the molar value.
recorded_metric: pKd

primary_sequence=WALCESITL recorded_metric=pKd value=7.12
primary_sequence=DPVVYDAKF recorded_metric=pKd value=6.02

====

molecular target: HLA-B*15:01; assay: IEDB peptide-MHC binding, purified MHC/competitive/fluorescence; filed as Kd, often an IC50 or EC50 that approximates it; bounds were set here for any values at or beyond the usual limits of such assays; conditions: source organism: Escherichia coli str. K-12 substr. DH10B
recorded_metric: Kd (nM)

primary_sequence=VSRDFDDVY recorded_metric=Kd value=244

====

target: HLA-B*53:01; assay: IEDB peptide-MHC binding, purified MHC/competitive/radioactivity; filed as Kd, often an IC50 or EC50 that approximates it; bounds were set here for any values at or beyond the usual limits of such assays; details: source organism: Dengue virus 1 Brazil/97-11/1997
Listed sequences paired with reported Kd
recorded_metric: Kd (nM)

primary_sequence=IGIGILLTW value_operator== value=5450
primary_sequence=VPSIKSGNDI value_operator=≥ value=47600
primary_sequence=MSIPATLFVW value_operator== value=414
primary_sequence=DPVVYDAKF value_operator== value=648

====

biological target: HLA-B*15:17; assay: IEDB peptide-MHC binding, purified MHC/direct/fluorescence; filed as Kd, often an IC50 or EC50 that approximates it; bounds were set here for any values at or beyond the usual limits of such assays; conditions: source organism: Marburg virus - Musoke, Kenya, 1980
recorded_metric: Kd (µM)

primary_sequence=KAVEKGKNW target_entity=HLA-B*15:17 recorded_metric=Kd unit_string=µM value=0.0177

====

molecular target: HLA-A*68:02; experiment: IEDB peptide-MHC binding, purified MHC/direct/fluorescence; filed as Kd, often an IC50 or EC50 that approximates it; bounds were set here for any values at or beyond the usual limits of such assays; settings: source organism: Influenza A virus
recorded_metric: Kd

primary_sequence=DWSGYSGSF value="≥ 20 µM"

====

molecular target: HLA-B*51:01; test: IEDB peptide-MHC binding, purified MHC/direct/fluorescence; filed as Kd, often an IC50 or EC50 that approximates it; bounds were set here for any values at or beyond the usual limits of such assays; conditions: source organism: Burkholderia mallei ATCC 23344
recorded_metric: Kd

primary_sequence=MVFGRFSFA value="≥ 20 µM"

====

molecular target: HLA-B*15:17; assay: IEDB peptide-MHC binding, purified MHC/competitive/fluorescence; filed as Kd, often an IC50 or EC50 that approximates it; bounds were set here for any values at or beyond the usual limits of such assays; conditions: source organism: Influenza A virus (A/ruddy turnstone/NJ/60/1985(N9))
pKd: −log10 of the molar value.
recorded_metric: pKd

primary_sequence=DWSGYSGSF value=5.91
